From: the OligoGym collection

conditions: siRNA; note: test system not given here
HELM strings list units from the 5' end as sugar, base in round brackets, then linkage (d deoxyribose, r ribose, m 2'-O-methyl, p phosphodiester). Strings are as the collection lists them, not checked against the first reports. ss, as = sense and antisense strand; [fl2r] = 2'-fluoro
Hi, to clarify the labels: yes covers target mRNA knockdown from 70% upward, no covers anything below 70%.

Solved cases (2 shown):
* RNA1{r(G)p.r(A)p.r(G)p.[fl2r](U)p.r(A)p.r(U)p.r(U)p.r(U)p.r(C)p.r(C)p.r(G)p.r(C)p.[fl2r](U)p.r(G)p.r(G)p.r(A)p.r(A)p.r(C)p.r(U)p.r(T)p.r(T)}|RNA2{r(A)p.r(G)p.r(U)p.r(U)p.r(C)p.[fl2r](C)p.r(A)p.r(G)p.r(C)p.r(G)p.r(G)p.r(A)p.r(A)p.r(A)p.[fl2r](U)p.r(A)p.r(C)p.r(U)p.r(C)p.r(T)p.r(T)}$$$RNA1{StrandType:ss}|RNA2{StrandType:as}$ | yes
* RNA1{r(A)p.r(A)p.r(G)p.r(G)p.r(A)p.r(G)p.r(A)p.m(U)p.m(C)p.r(A)p.r(A)p.m(C)p.r(A)p.m(U)p.m(U)p.m(U)p.m(U)p.m(C)p.r(A)p.r(T)p.r(T)}|RNA2{m(U)p.r(G)p.r(A)p.r(A)p.r(A)p.r(A)p.m(U)p.r(G)p.m(U)p.m(U)p.r(G)p.r(A)p.m(U)p.m(C)p.m(U)p.m(C)p.m(C)p.m(U)p.m(U)p.r(T)p.r(T)}$$$RNA1{StrandType:ss}|RNA2{StrandType:as}$ | no

Assess whether reported target mRNA knockdown for `RNA1{r(G)p.r(C)p.r(U)p.r(U)p.r(U)p.m(A)p.r(A)p.r(G)p.r(G)p.r(A)p.r(A)p.r(C)p.m(U)p.r(G)p.r(G)p.r(A)p.r(A)p.r(G)p.r(G)p.r(T)p.r(T)}|RNA2{r(C)p.r(C)p.r(U)p.r(U)p.r(C)p.m(C)p.r(A)p.r(G)p.r(U)p.r(U)p.r(C)p.r(C)p.r(U)p.r(U)p.r(A)p.r(A)p.r(A)p.r(G)p.r(C)p.r(T)p.r(T)}$$$RNA1{StrandType:ss}|RNA2{StrandType:as}$` sits at 70% or higher.
yes

###

Each item that follows carries a reported target mRNA knockdown.
details: siRNA
HELM strings list units from the 5' end as sugar, base in round brackets, then linkage (d deoxyribose, r ribose, m 2'-O-methyl, p phosphodiester). Strings are as the collection lists them, not checked against the first reports. ss, as = sense and antisense strand; [lna] = locked nucleic acid (LNA); [una] = unlocked nucleic acid; [fl2r] = 2'-fluoro
API: value field is a number in %; no unit string.

• RNA1{r(C)p.r(U)p.r(U)p.r(A)p.r(C)p.r(G)p.r(C)p.r(U)p.r(G)p.r(A)p.r(G)p.r(U)p.r(A)p.r(C)p.r(U)p.r(U)p.r(C)p.r(G)p.r(A)p.r(T)p.r(T)}|RNA2{r(U)p.r(C)p.r(G)p.r(A)p.r(A)p.r(G)p.r(U)p.r(A)p.r(C)p.r(U)p.r(C)p.r(A)p.r(G)p.r(C)p.r(G)p.r(U)p.r(A)p.r(A)p.[lna](G)p.r(T)p.r(T)}$$$RNA1{StrandType:ss}|RNA2{StrandType:as}$ = 88
• RNA1{r(A)p.r(A)p.r(G)p.r(U)p.[fl2r](A)p.r(G)p.r(U)p.r(C)p.r(C)p.r(C)p.r(C)p.r(C)p.r(U)p.r(U)p.r(G)p.r(A)p.r(A)p.r(G)p.r(A)p.r(T)p.r(T)}|RNA2{r(U)p.r(C)p.r(U)p.r(U)p.r(C)p.r(A)p.r(A)p.r(G)p.r(G)p.r(G)p.r(G)p.r(G)p.r(A)p.r(C)p.[fl2r](U)p.r(A)p.r(C)p.r(U)p.r(U)p.r(T)p.r(T)}$$$RNA1{StrandType:ss}|RNA2{StrandType:as}$ = 69

Please supply the value of reported target mRNA knockdown for the item `RNA1{r(C)p.r(U)p.r(A)p.r(A)p.r(G)p.r(G)p.r(A)p.r(C)p.r(C)p.r(U)p.r(A)p.r(A)p.r(C)p.r(A)p.r(A)p.[una](A)p.r(G)p.[una](U)p.[una](U)p.r(U)p.r(U)}|RNA2{r(A)p.r(A)p.r(C)p.r(U)p.r(U)p.r(U)p.r(G)p.r(U)p.r(U)p.r(A)p.r(G)p.r(G)p.r(U)p.r(C)p.r(C)p.r(U)p.r(U)p.r(A)p.r(G)p.r(U)p.r(U)}$$$RNA1{StrandType:ss}|RNA2{StrandType:as}$`
70

###

Catalogue of substances with associated target mRNA knockdown
conditions: siRNA
HELM strings list units from the 5' end as sugar, base in round brackets, then linkage (d deoxyribose, r ribose, m 2'-O-methyl, p phosphodiester). Strings are as the collection lists them, not checked against the first reports. ss, as = sense and antisense strand; [una] = unlocked nucleic acid
Please answer using the number first and the unit second.

• RNA1{m(U)p.r(U)p.m(A)p.r(A)p.m(A)p.r(G)p.m(G)p.r(G)p.m(C)p.r(G)p.m(A)p.r(G)p.m(A)p.r(A)p.m(G)p.r(A)p.m(C)p.r(C)p.m(G)p.r(T)p.r(T)}|RNA2{r(C)p.r(G)p.r(G)p.r(U)p.r(C)p.r(U)p.r(U)p.r(C)p.r(U)p.r(C)p.r(G)p.r(C)p.r(C)p.r(C)p.r(U)p.r(U)p.r(U)p.r(A)p.r(A)p.r(T)p.r(T)}$$$RNA1{StrandType:ss}|RNA2{StrandType:as}$ = 67%
• RNA1{r(G)p.r(U)p.r(A)p.r(U)p.r(G)p.r(A)p.r(C)p.r(C)p.r(G)p.r(A)p.r(C)p.r(U)p.r(A)p.r(C)p.r(G)p.r(C)p.r(G)p.r(U)p.r(A)p.r(T)p.r(T)}|RNA2{r(U)p.r(U)p.r(C)p.r(A)p.r(G)p.r(U)p.r(G)p.r(U)p.r(G)p.r(A)p.r(U)p.r(G)p.r(A)p.r(C)p.r(A)p.r(C)p.r(U)p.r(U)p.[una](G)p.r(T)p.r(T)}$$$RNA1{StrandType:ss}|RNA2{StrandType:as}$ = 82%

Item `RNA1{m(A)p.r(A)p.m(A)p.r(C)p.m(G)p.r(A)p.m(G)p.r(A)p.m(G)p.r(A)p.m(G)p.r(C)p.m(C)p.r(C)p.m(A)p.r(C)p.m(C)p.r(U)p.m(U)p.r(T)p.r(T)}|RNA2{r(A)p.r(A)p.r(G)p.r(G)p.r(U)p.r(G)p.r(G)p.r(G)p.m(C)p.r(U)p.m(C)p.r(U)p.m(C)p.r(U)p.m(C)p.r(G)p.r(U)p.r(U)p.r(U)p.r(T)p.r(T)}$$$RNA1{StrandType:ss}|RNA2{StrandType:as}$` : provide target mRNA knockdown
37%

###

conditions: siRNA
HELM strings list units from the 5' end as sugar, base in round brackets, then linkage (d deoxyribose, r ribose, m 2'-O-methyl, p phosphodiester). Strings are as the collection lists them, not checked against the first reports. ss, as = sense and antisense strand; [una] = unlocked nucleic acid; [hna] = hexitol nucleic acid; [s4r] = 4'-thioribose
In this section, each of the substances is paired with its reported target mRNA knockdown.
Field format: number, assumed %, no unit text.

* RNA1{r(G)p.r(A)p.r(C)p.r(G)p.r(U)p.r(A)p.r(A)p.r(A)p.r(C)p.r(G)p.r(G)p.r(C)p.r(C)p.r(A)p.r(C)p.r(A)p.r(A)p.r(G)p.[hna](U)p.[hna](U)p.r(C)}|RNA2{r(A)p.r(C)p.r(U)p.r(U)p.r(G)p.r(U)p.r(G)p.r(G)p.r(C)p.r(C)p.r(G)p.r(U)p.r(U)p.r(U)p.r(A)p.r(C)p.r(G)p.r(U)p.r(C)p.r(G)p.r(C)}$$$RNA1{StrandType:ss}|RNA2{StrandType:as}$ | 88.7

Provide only the value of recorded target mRNA knockdown for `RNA1{[s4r](C)p.r(G)p.r(U)p.r(A)p.[s4r](C)p.r(G)p.[s4r](C)p.r(G)p.r(G)p.r(A)p.r(A)p.r(U)p.r(A)p.[s4r](C)p.r(U)p.r(U)p.[s4r](C)p.r(G)p.r(A)p.r(T)p.r(T)}|RNA2{r(U)p.r(C)p.r(G)p.r(A)p.r(A)p.r(G)p.r(U)p.r(A)p.r(U)p.r(U)p.r(C)p.r(C)p.r(G)p.r(C)p.r(G)p.r(U)p.r(A)p.r(C)p.r(G)p.r(T)p.r(T)}$$$RNA1{StrandType:ss}|RNA2{StrandType:as}$`
93.6

In one line, give reported target mRNA knockdown of the entry `RNA1{r(G)p.r(U)p.r(A)p.r(U)p.r(G)p.r(A)p.r(C)p.r(C)p.r(G)p.r(A)p.r(C)p.r(U)p.r(A)p.r(C)p.r(G)p.r(C)p.r(G)p.r(U)p.r(A)p.r(T)p.r(T)}|RNA2{r(U)p.r(U)p.r(C)p.r(A)p.r(G)p.r(U)p.r(G)p.r(U)p.r(G)p.r(A)p.r(U)p.r(G)p.r(A)p.r(C)p.r(A)p.r(C)p.r(U)p.[una](U)p.r(G)p.r(T)p.r(T)}$$$RNA1{StrandType:ss}|RNA2{StrandType:as}$` .
91
